For each of the compounds below, state its IC50.
Molecular target: Syk kinase (Homo sapiens, UniProt P43405)
Construct: purchased
Experiment: Syk kinase inhibition, Caliper LabChip off-chip mobility-shift kinase assay
Format: biochemical
Conditions: read-out: Syk Enzyme IC50
Lab book: enter the figure in nM, no units written.

stdin: Can you look up the measured IC50 of COc1cncc(-c2cc3cc[nH]c(=O)c3c(Nc3ccc([C@H]4CC[C@H](N5CCOCC5)CC4)cc3)n2)n1 [compound 56] for me?
stdout: 358

stdin: Now give it for CCn1ccc2cc(Nc3cc(C)ccn3)nc(NC(C)(C)C)c2c1=O [compound 525] too.
stdout: 242

stdin: Same lookup for CCOC(=O)CCc1cc2cc[nH]c(=O)c2c(Nc2ccc(N3CCOCC3)cc2)n1 [compound 245] , please.
stdout: 295

stdin: Also, Cc1ccnc(Nc2cc3cc[nH]c(=O)c3c(NCCC3CCCN3C)n2)c1 (centres unmarked) [compound 562] please.
stdout: 288

stdin: COCCN1CCC(c2cc3cc[nH]c(=O)c3c(Nc3ccc(N4CCOCC4)cc3)n2)CC1 [compound 9] ?
stdout: 299

stdin: // query: Cn1ccc2cc(Nc3ccc(C(N)=O)cn3)nc(N)c2c1=O [compound 574]
stdout: 142

stdin: How about this compound: O=c1[nH]ccc2cc(Nc3ccc(F)cn3)nc(Nc3ccc(N4CCOCC4)cc3)c12 [compound 576]
stdout: 4870

stdin: Same thing, different compound: CCn1ccc2cc(Nc3cnccn3)nc(N[C@H]3CCC[C@H]3O)c2c1=O (racemic) [compound 354]
stdout: 18

Reference source for all entries: patent US20110053897A1
